- System: HOP-62 NSCLC
- assay.details: NCI-60 one-dose screen, 48 h (100 = growth as untreated, 0 = no growth, -100 = all killed)
- study.conditions: 10 µM unless noted
About 83,000 compounds went through this panel and 20% of them were active in at least one assay; those are over-represented in the sample as a whole.
recorded.metric: growth (%)
Enter your answer as a number in %; do not include the unit.

# count of solved cases: 8
{"columns": ["compound", "growth (%)"],
 "data": [
  ["COc1cc(CCn2nnc3c(NCCCCO)ncnc32)cc(OC)c1", 113],
  ["NC(=O)NNC(=O)c1ccccc1", 107],
  ["O=c1[nH]c(CN2CCN(c3ccccc3F)CC2)nc2sc3c(c12)CCC3", 92.4],
  ["CC1Cc2c(N(C)C)ncnc2N(C)c2ccc(Cl)cc21 (stereo unspecified)", 41.9],
  ["COc1ccc(/C=C/c2nc(N3CCOCC3)c3nc(Cl)c(Cl)cc3n2)cc1OC", 115],
  ["COc1cc2c(cc1OCCCCn1c(-c3cc(=O)c4ccccc4o3)nc3ccccc31)N=C[C@@H]1CCCN1C2=O", 105],
  ["C[N+](C)(C)c1ccc(CC2c3ccccc3-c3ccccc32)cc1", 38.9],
  ["CC(=O)Nc1nc(C(=O)N2N=C(C)/C(=C/c3ccccc3)C2=O)cs1", 99.8]
]}

[ask] # query: growth of entry `COc1ccc(C(=O)c2cc(OC)c(OC)c(OC)c2)cc1/C=C/C(=O)c1ccc(OC)c(OC)c1`
[reply] 58.6

[ask] # query: growth of entry `CCNCc1ccncc1`
[reply] 104

[ask] # query: growth of entry `CCCCC[C@@H]1Cc2cc(O)c(C(=O)O)c3c2[C@H](C[C@@]2(CCCO2)O3)O1`
[reply] 93.6
